Tested on: SNB-19
Experiment: NCI tumour cell line growth inhibition, 48 h
Calls of active or inactive are those of the source. No stated cut-off is given here; in the data, active = GI50 up to about 1.1 µM and inactive = higher.
Measure: GI50

[
  {
    "Molecule": "Cc1ccc2c(=O)c3cccc(CC(=O)O)c3[nH]c2c1C",
    "Result": "> 100 µM (inactive)"
  },
  {
    "Molecule": "C/C(Cl)=N/OC(=O)Nc1ccc(S(N)(=O)=O)c(C)c1",
    "Result": "18.1 µM (inactive)"
  },
  {
    "Molecule": "COc1cc2c(cc1OC)C1(c3ccccc3)CN(C2)Cc2cc(OC)c(OC)cc21",
    "Result": "44.5 µM (inactive)"
  },
  {
    "Molecule": "c1ccc2c(c1)CCc1[nH]c3c(c1-2)-c1ccccc1CC3",
    "Result": "> 100 µM (inactive)"
  },
  {
    "Molecule": "CCOC(=O)COc1c(OC)cc(C2C3=C(COC3=O)Oc3cc4c(cc32)OCO4)cc1OC (stereo unspecified)",
    "Result": "13 µM (inactive)"
  },
  {
    "Molecule": "Nc1ncnc2c1nc(-c1ccccc1)n2C1OC(CO)C(O)C1O (stereo unspecified)",
    "Result": "> 100 µM (inactive)"
  },
  {
    "Molecule": "Cc1oc2c(cc(O)c3cc(O)ccc32)c2cccc1-2",
    "Result": "> 100 µM (inactive)"
  },
  {
    "Molecule": "Nc1nc(-c2ccco2)cc(-c2ccc(CO)o2)n1",
    "Result": "65.5 µM (inactive)"
  },
  {
    "Molecule": "Cc1cccc(-n2c(C)nc3ccc(NC4OC(CO)C(O)C(O)C4O)cc3c2=O)c1 (stereo unspecified)",
    "Result": "> 100 µM (inactive)"
  },
  {
    "Molecule": "CSC1CC2C(CC1(C)SC)C2(C)C (stereo unspecified)",
    "Result": "46.9 µM (inactive)"
  },
  {
    "Molecule": "O=C(c1ccccc1)N1CCC(Nc2cccnc2)O1 (stereo unspecified)",
    "Result": "> 100 µM (inactive)"
  }
]

These measurements were taken from ChEMBL document CHEMBL1201862.
